system: HDAC activity in primary mouse cortical cultures; test: Whole-Cell Histone Deacetylase (HDAC) Inhibition Assay in Primary Mouse Cortical Cultures; format: cell-based; conditions: whole-cell (WC), mouse cortical neurons; Table 8; read-out: HDAC Inhibition (IC50 μM) WC mouse cortical neurons
Entries and their IC50 values follow.

Here's what some known entries look like.
O=C(NO)c1ccc(C2=Nc3ccccc3Oc3c(OCCN4CCOCC4)cccc32)cc1	< 1 µM
O=C(NO)c1ccc(CNC2=Nc3ccccc3Oc3ccccc32)cc1	< 1 µM
COc1cc(F)cc2c1Oc1ccccc1N=C2c1ccc(C(=O)NO)cc1	1 to 5 µM
O=C(NO)c1ccc(C2=Nc3ccccc3Oc3ncccc32)cc1	1 to 5 µM
CN(C)CCOc1ccc2c(c1)C(c1ccc(C(=O)NO)cc1)=Nc1ccccc1O2	> 15 µM

[Q] Item under review: C[S+]([O-])c1cccc2c1Oc1ccccc1N=C2c1ccc(C(=O)NO)cc1 (stereo not shown) . Reported IC50?
[A] 1 to 5 µM

[Q] Item under review: O=C(NO)c1ccc(C2=Nc3ccccc3Oc3cccc(F)c32)cc1 . Reported IC50?
[A] 5 to 15 µM

[Q] Item under review: O=C(NO)c1ccc(C2=Nc3cccc(F)c3Oc3ccccc32)cc1 . Reported IC50?
[A] 5 to 15 µM

[Q] Item under review: O=C(NO)c1ccc(C2=Nc3cc(C(F)(F)F)ccc3Oc3ccccc32)cc1 . Reported IC50?
[A] 5 to 15 µM

[Q] Item under review: O=C(NO)c1ccc(C2=Nc3ccccc3S(=O)(=O)c3ccccc32)cc1 . Reported IC50?
[A] 5 to 15 µM

[Q] Item under review: CCN1c2ccccc2N=C(c2ccc(C(=O)NO)cc2)c2cccnc21 . Reported IC50?
[A] < 1 µM

[Q] Item under review: COc1ccc2c(c1)C(c1ccc(C(=O)NO)cc1)=Nc1ccccc1O2 . Reported IC50?
[A] 5 to 15 µM

[Q] Item under review: O=C(NO)c1ccc(C2=Nc3cccnc3Oc3ccccc32)cc1 . Reported IC50?
[A] 1 to 5 µM

[Q] Item under review: O=C(NO)c1ccc(C2=Nc3ccc(Cl)cc3Oc3ccccc32)cc1 . Reported IC50?
[A] 5 to 15 µM

[Q] Item under review: O=C(NO)c1ccc(C2=Nc3ccccc3Oc3ccccc32)o1 . Reported IC50?
[A] > 15 µM

[Q] Item under review: COc1cccc2c1Oc1ccccc1N=C2c1ccc(C(=O)NO)cc1 . Reported IC50?
[A] 1 to 5 µM

[Q] Item under review: O=C(NO)c1ccc(C2=Nc3ccccc3N(C3CC3)c3ccccc32)cc1 . Reported IC50?
[A] 1 to 5 µM

[Q] Item under review: CCCc1cccc2c1Oc1ccccc1N=C2c1ccc(C(=O)NO)cc1 . Reported IC50?
[A] > 15 µM

---

system: HDAC activity in primary mouse cortical cultures; assay: Whole-Cell Histone Deacetylase (HDAC) Inhibition Assay in Primary Mouse Cortical Cultures; assay type: cell-based; conditions: whole-cell (WC), mouse cortical neurons; Table 9; read-out: HDAC Inhibition (IC50 μM) WC mouse cortical neurons
Entries and their IC50 values follow.

Here's what some known entries look like.
O=C(NO)c1cnc(N2C[C@@H]3C[C@H]2CN3C(=O)C(c2ccccc2)c2ccccc2)nc1	1 to 5 µM
O=C(NO)c1cnc(N2CC3CC(CN(c4cc(C(F)(F)F)ccn4)C3)C2)nc1	> 15 µM
CC(C)(C)OC(=O)N1C[C@@H]2C[C@H]1CN2c1ncc(C(=O)NO)cn1	< 1 µM

[Q] Item under review: O=C(NO)c1cnc(N2CC3CC2CO3)nc1 (stereo not shown) . Reported IC50?
[A] 1 to 5 µM

[Q] Item under review: Cc1ccc(N2C[C@@H]3C[C@H]2CN3c2ncc(C(=O)NO)cn2)cc1 . Reported IC50?
[A] < 1 µM

[Q] Item under review: O=C(NO)c1cnc(N2C[C@@H]3C[C@H]2CN3c2ccccc2C(F)(F)F)nc1 . Reported IC50?
[A] 1 to 5 µM

[Q] Item under review: CC(C)COC(=O)N1C[C@@H]2C[C@H]1CN2c1ncc(C(=O)NO)cn1 . Reported IC50?
[A] < 1 µM

[Q] Item under review: Cc1cccc(N2C[C@H]3C[C@@H]2CN3c2ncc(C(=O)NO)cn2)c1 . Reported IC50?
[A] < 1 µM

[Q] Item under review: O=C(NO)c1cnc(N2C[C@@H]3C[C@H]2CN3c2ccc3c(c2)OC(F)(F)O3)nc1 . Reported IC50?
[A] 1 to 5 µM

[Q] Item under review: Cc1cccc(N2C[C@@H]3C[C@H]2CN3c2ncc(C(=O)NO)cn2)c1 . Reported IC50?
[A] < 1 µM

---

biological target: one or more of HDAC-1, HDAC-2, HDAC-3, HDAC-4, HDAC-5, HDAC-6, HDAC-7, HDAC-8, HDAC-9, HDAC-10 and HDAC-11; test: Inhibition of Histone Deacetylase Enzymatic Activity (Boc-Lys(Ac)-AMC substrate, Fluor-de-Lys developer); assay type: biochemical; conditions: Table 9; read-out: HDAC Inhibition (IC50 μM) HDAC Enzyme
Entries and their IC50 values follow.

Here's what some known entries look like.
O=C(NO)c1cnc(N2C[C@@H]3C[C@H]2CN3c2cccc(F)c2)nc1	< 0.05 µM
CC(C)COC(=O)N1C[C@@H]2C[C@H]1CN2c1ncc(C(=O)NO)cn1	< 0.05 µM
O=C(NO)c1ccc(N2C[C@@H]3C[C@H]2CN3c2cccc(C(F)(F)F)c2)nn1	0.1 to 1 µM
O=C(NO)c1cnc(N2C[C@@H]3C[C@H]2CN3c2cccc(C(F)(F)F)n2)nc1	< 0.05 µM

// next entry
[Q] Item under review: O=C(NO)c1cnc(N2C[C@@H]3C[C@H]2CN3C(=O)OCc2ccccc2)nc1 . Reported IC50?
[A] < 0.05 µM

---

tested on: HDAC activity in primary mouse cortical cultures; test: Whole-Cell Histone Deacetylase (HDAC) Inhibition Assay in Primary Mouse Cortical Cultures; format: cell-based; conditions: whole-cell (WC), mouse cortical neurons; Table 8; read-out: HDAC Inhibition (IC50 μM) WC mouse cortical neurons
Entries and their IC50 values follow.

O=C(NO)c1ccc(CNC2=Nc3ccccc3N(C3CC3)c3ccccc32)cc1	5 to 15 µM
O=C(NO)c1ccc(C2=Nc3ccccc3N(C3CC3)c3ncccc32)cc1	< 1 µM
O=C(NO)c1ccc(C2=Nc3ccccc3Oc3cc(C(F)(F)F)ccc32)cc1	> 15 µM
CN1c2ccccc2Oc2ccccc2C1c1ccc(C(=O)NO)cc1 (centres unmarked)	5 to 15 µM

// next entry
[Q] Item under review: O=C(NO)c1ccc(C2=Nc3ccc(C(F)(F)F)cc3Oc3ccccc32)cc1 . Reported IC50?
[A] > 15 µM

---

target: one or more of HDAC-1, HDAC-2, HDAC-3, HDAC-4, HDAC-5, HDAC-6, HDAC-7, HDAC-8, HDAC-9, HDAC-10 and HDAC-11; assay: Inhibition of Histone Deacetylase Enzymatic Activity (Boc-Lys(Ac)-AMC substrate, Fluor-de-Lys developer); format: biochemical; conditions: Table 9; read-out: HDAC Inhibition (IC50 μM) HDAC Enzyme
Entries and their IC50 values follow.

Here's what some known entries look like.
O=C(NO)c1ccc(N2C[C@@H]3C[C@H]2CN3c2cc(C(F)(F)F)ccn2)cc1	0.1 to 1 µM
CN(C)Cc1cccc(N2C[C@@H]3C[C@H]2CN3c2ncc(C(=O)NO)cn2)c1	< 0.05 µM
O=C(NO)c1cnc(N2C[C@@H]3C[C@H]2CN3C(=O)C(c2ccccc2)c2ccccc2)nc1	0.05 to 0.1 µM
O=C(NO)c1cnc(N2C[C@@H]3C[C@H]2CN3c2ccccc2)nc1	0.05 to 0.1 µM
Cc1ccc(N2C[C@@H]3C[C@H]2CN3c2ccc(C(=O)NO)cc2)cc1	0.1 to 1 µM

// next entry
[Q] Item under review: Cc1ccc(N2CC3CC2CN3c2ccc(C(=O)NO)cn2)cc1 (stereo not shown) . Reported IC50?
[A] < 0.05 µM

---

target: one or more of HDAC-1, HDAC-2, HDAC-3, HDAC-4, HDAC-5, HDAC-6, HDAC-7, HDAC-8, HDAC-9, HDAC-10 and HDAC-11; assay: Inhibition of Histone Deacetylase Enzymatic Activity (Boc-Lys(Ac)-AMC substrate, Fluor-de-Lys developer); format: biochemical; settings: Table 8; read-out: HDAC Inhibition (IC50 μM) HDAC Enzyme
Entries and their IC50 values follow.

O=C(NO)c1ccc(C2=Nc3ccccc3Sc3ccccc32)cc1	0.1 to 1 µM

[Q] Item under review: O=C(NO)c1ccc(C2=Nc3cc(Cl)ccc3Oc3ccccc32)cc1 . Reported IC50?
[A] 0.1 to 1 µM

[Q] Item under review: O=C(NO)c1ccc(-c2ccc3c(c2)C(N2CCOCC2)=Nc2ccccc2O3)cc1 . Reported IC50?
[A] < 0.05 µM

[Q] Item under review: O=C(NO)c1ccc(C2=Nc3ccccc3N(CCN3CCOCC3)c3ncccc32)cc1 . Reported IC50?
[A] 0.05 to 0.1 µM

[Q] Item under review: O=C(NO)c1ccc(C2=Nc3ccccc3N(C3CC3)c3ccc(F)cc32)cc1 . Reported IC50?
[A] 0.05 to 0.1 µM

[Q] Item under review: O=C(NO)c1ccc(C2=Nc3ccccc3N(C3CC3)c3ncccc32)cc1 . Reported IC50?
[A] < 0.05 µM

[Q] Item under review: O=C(NO)c1ccc(C2=Nc3ccccc3Oc3ccccc32)o1 . Reported IC50?
[A] 1 to 10 µM

[Q] Item under review: COCCOc1cccc2c1Oc1ccccc1N=C2c1ccc(C(=O)NO)cc1 . Reported IC50?
[A] < 0.05 µM

[Q] Item under review: O=C(NO)c1ccc(C2=Nc3ccccc3Oc3ccc(F)cc32)cc1 . Reported IC50?
[A] < 0.05 µM

[Q] Item under review: O=C(NO)c1ccc(CNC2=Nc3ccccc3Oc3ccccc32)cc1 . Reported IC50?
[A] < 0.05 µM

[Q] Item under review: O=C(NO)c1ccc(C2=Nc3ccccc3Nc3ccccc32)cc1 . Reported IC50?
[A] 0.1 to 1 µM

[Q] Item under review: O=C(NO)c1ccc(C2=Nc3ccccc3N(C3CC3)c3ccccc32)cc1 . Reported IC50?
[A] 0.1 to 1 µM
